- study_system: Fyn SH2 domain (Homo sapiens)
- Construct: The human SH2 domains from Fyn (142–248), Lyn (121–228); His6-SUMO (N, cleaved yes); host or cells: Escherichia coli C43(DE3) with BirA helper plasmid
- Sequence (P06241 142-248): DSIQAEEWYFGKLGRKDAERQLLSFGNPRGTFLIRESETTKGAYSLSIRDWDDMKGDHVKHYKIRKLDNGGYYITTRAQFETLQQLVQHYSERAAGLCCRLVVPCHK
- procedure_summary: biochemical
- Assay type: binding
- details: Table S3, unpaired validation; competition fluorescence polarization; probe FITC-Ahx-GDG-pY-EEISPLLL-NH2 0.4 nM; [SH2] 4.12 nM; mean; read-out: Kd mean
Non-standard residues stand in square brackets, D forms with d. Residues, ends and D or L forms follow the SMILES beside them. pY = N[C@@H](Cc1ccc(OP(=O)(O)O)cc1)C(=O)O
readout_type: pKd
Reminder that pKd means the negative base-10 logarithm of the concentration expressed in mol/L.

### Prompt For CC(=O)N[C@@H](CCC(N)=O)C(=O)N[C@@H](CO)C(=O)N[C@@H](CC(C)C)C(=O)N[C@@H](CCC(=O)O)C(=O)N[C@@H](CCCCN)C(=O)N[C@@H](CO)C(=O)N[C@@H](Cc1ccc(OP(=O)(O)O)cc1)C(=O)N[C@@H](CCC(=O)O)C(=O)N[C@@H](CC(C)C)C(=O)N1CCC[C@H]1C(=O)N[C@@H](CC(=O)O)C(=O)NCC(=O)NCC(N)=O [ACTB pY240] (Ac-QSLEKS[pY]ELPDGG-NH2) , what is its reported pKd?
### Response 6.80

### Prompt Now give it for CC[C@H](C)[C@H](NC(=O)[C@H](CC(C)C)NC(=O)[C@H](CO)NC(=O)[C@H](Cc1ccc(OP(=O)(O)O)cc1)NC(=O)[C@H](CCCNC(=N)N)NC(=O)[C@H](CCCNC(=N)N)NC(=O)[C@H](CCC(N)=O)NC(=O)[C@H](CC(=O)O)NC(=O)[C@H](CO)NC(=O)[C@H](CCC(N)=O)NC(C)=O)C(=O)N[C@@H](CC(=O)O)C(=O)N1CCC[C@H]1C(=O)NCC(N)=O [CLIP2 pY972 R977P] (Ac-QSDQRR[pY]SLIDPG-NH2) too.
### Response 7.57

### Prompt Now give it for CC[C@H](C)[C@H](NC(=O)[C@H](CC(C)C)NC(=O)[C@H](CO)NC(=O)[C@H](Cc1ccc(OP(=O)(O)O)cc1)NC(=O)[C@H](CCCNC(=N)N)NC(=O)[C@H](CCCNC(=N)N)NC(=O)[C@H](CCC(N)=O)NC(=O)[C@H](CC(=O)O)NC(=O)[C@H](CO)NC(=O)[C@H](CCC(N)=O)NC(C)=O)C(=O)N[C@@H](CC(=O)O)C(=O)N[C@@H](CCCNC(=N)N)C(=O)NCC(N)=O [CLIP2 pY972] (Ac-QSDQRR[pY]SLIDRG-NH2) too.
### Response 7.11

### Prompt Now give it for CC[C@H](C)[C@H](NC(=O)CNC(=O)[C@H](CCC(=O)O)NC(=O)[C@@H](NC(=O)[C@H](CCC(N)=O)NC(C)=O)C(C)C)C(=O)NCC(=O)N[C@@H](Cc1ccc(OP(=O)(O)O)cc1)C(=O)N[C@@H](CC(=O)O)C(=O)N[C@@H](Cc1ccccc1)C(=O)N[C@H](C(=O)N1CCC[C@H]1C(=O)N[C@H](C(=O)NCC(N)=O)[C@@H](C)O)[C@@H](C)CC [CBS pY308] (Ac-QVEGIG[pY]DFIPTG-NH2) too.
### Response 6.90
